# Measurement target: IRAK4 enzyme (Homo sapiens (Human), UniProt Q9NWZ3)
# Sequence (Q9NWZ3 whole entry): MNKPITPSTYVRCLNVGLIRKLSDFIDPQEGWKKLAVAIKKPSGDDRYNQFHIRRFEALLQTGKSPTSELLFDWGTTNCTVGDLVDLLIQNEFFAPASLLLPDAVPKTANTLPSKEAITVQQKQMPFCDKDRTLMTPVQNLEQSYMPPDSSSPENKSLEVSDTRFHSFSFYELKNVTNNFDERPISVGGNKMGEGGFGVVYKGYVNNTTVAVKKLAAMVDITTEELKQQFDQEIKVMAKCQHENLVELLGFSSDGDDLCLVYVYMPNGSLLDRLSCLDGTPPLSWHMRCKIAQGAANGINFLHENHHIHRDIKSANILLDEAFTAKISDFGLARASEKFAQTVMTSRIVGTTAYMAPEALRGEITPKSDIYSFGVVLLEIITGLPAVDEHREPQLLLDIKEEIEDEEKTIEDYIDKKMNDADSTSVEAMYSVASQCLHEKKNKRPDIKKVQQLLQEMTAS
# Protocol: biochemical
# Format: biochemical
# Assay conditions: IRAK4 enzyme, TR-FRET (HTRF), 500 μM ATP
Measured parameter: IC50

[ask] IC50 for Cc1ncoc1-c1ccc(Nc2cc(-c3ccc4cc(C#N)cnn34)ncc2C(=O)NC[C@@H](F)C(C)(C)O)cn1 [Example 632] ?
[reply] < 1 nM

[ask] Next compound up: CC(C)(O)[C@H](F)CNC(=O)c1cnc(-c2ccc3cc(C#N)cnn23)cc1Nc1ccc2c(c1)NC(=O)C2 [Example 573]
[reply] < 1 nM

[ask] Next compound up: N#Cc1cnn2c(-c3cc(NC45CCC(O)(CC4)CC5)c(C(=O)NCC4(F)CCC4)cn3)ccc2c1 [Example 739]
[reply] 4 nM

[ask] Next compound up: COC(=O)c1cncc(Nc2cc(-c3ccc4cc(C#N)cnn34)ncc2C(=O)NC[C@@H](F)C(C)(C)O)c1 [Example 594]
[reply] 2 nM

[ask] Next compound up: COc1ccc(Nc2cc(-c3ccc4cc(C#N)cnn34)ncc2C(=O)NC[C@@H](F)C(C)(C)O)nc1 [Example 667]
[reply] < 1 nM

[ask] Next compound up: CC(C)(O)[C@H](F)CNC(=O)c1cnc(-c2ccc3cc(C#N)cnn23)cc1Nc1ccc(-c2ccon2)cc1 [Example 773]
[reply] 1 nM

[ask] Next compound up: CC(=O)NC12CC(Nc3cc(-c4ccc5cc(C#N)cnn45)ncc3C(=O)N[C@H]3CC[C@H](C(=O)N4CC(F)(F)C4)CC3)(C1)C2 [Example 478]
[reply] 1 nM

---

# Tested on: TNFα
# Protocol: cells
# Type: cell-based, human
# Assay conditions: Homo sapiens, Monocyte, LPS-stimulated human monocytes, TNFα by TR-FRET; read-out: EC50 TNF
Measured parameter: pEC50
Worth noting: pEC50 values are minus log10 of concentrations stated in mol/L.

[ask] pEC50 for COC(=O)NC[C@H]1CN(c2ccc(Nc3cc(-c4ccc5cc(C#N)cnn45)ncc3C(=O)NC[C@@H](F)C(C)(C)O)cn2)CCO1 ?
[reply] 7.06

[ask] Next compound up: CC1(C(=O)NC[C@H]2C[C@H](Nc3cc(-c4ccc5cc(C#N)cnn45)ncc3C(=O)NC[C@@H](F)C(C)(C)O)C2)CC1
[reply] 7.82

[ask] Next compound up: CC(C)(O)[C@H](F)CNC(=O)c1cnc(-c2ccc3cc(C#N)cnn23)cc1Nc1cnc(N2CCNCC2)nc1
[reply] 7.35

[ask] Next compound up: CC(C)(O)[C@H](F)CNC(=O)c1cnc(-c2ccc3cc(C#N)cnn23)cc1Nc1cnc2c(c1)OCCO2
[reply] 8.00

[ask] Next compound up: CC(C)(O)[C@H](F)CNC(=O)c1cnc(-c2ccc3cc(C#N)cnn23)cc1NC12CC(CNC(=O)C3CC3(F)F)(C1)C2 (stereo partly shown)
[reply] 6.72

[ask] Next compound up: COC(=O)N1CC(CNc2cc(-c3ccc4cc(C#N)cnn34)ncc2C(=O)NC[C@@H](F)C(C)(C)O)C1
[reply] 6.73

---

# Tested on: TNFα
# Protocol: cells
# Format: cell-based, human
# Assay conditions: Homo sapiens, Monocyte, LPS-stimulated human monocytes, TNFα content; read-out: EC50 TNF
Would you mind telling me the reported EC50 of each entry?

[ask] EC50 for CC(C)(O)[C@H](F)CNC(=O)c1cnc(-c2ccc3cc(C#N)cnn23)cc1Nc1cnn(-c2ccccn2)c1 [Example 755] ?
[reply] 0.016 µM

[ask] Next compound up: CC(C)(O)[C@H](F)CNC(=O)c1cnc(-c2ccc3cc(C#N)cnn23)cc1Nc1ccc2nc[nH]c2c1 [Example 580]
[reply] 0.069 µM

[ask] Next compound up: Cn1cc(Nc2cc(-c3ccc4cc(C#N)cnn34)ncc2C(=O)NC[C@@H](F)C(C)(C)O)ccc1=O [Example 441]
[reply] 1.3 µM

[ask] Next compound up: CC(C)(O)[C@H](F)CNC(=O)c1cnc(-c2ccc3cc(C#N)cnn23)cc1NC1CC(F)(F)C1 [Example 40]
[reply] 0.073 µM

[ask] Next compound up: CC(C)(O)[C@H](F)CNC(=O)c1cnc(-c2ccc3cc(C#N)cnn23)cc1Nc1cccnc1F [Example 229]
[reply] 0.135 µM

[ask] Next compound up: CNC(=O)O[C@H]1CC[C@H](Nc2cc(-c3ccc4cc(C#N)cnn34)ncc2C(=O)NC[C@@H](F)C(C)(C)O)CC1 [Example 165]
[reply] > 10 µM

[ask] Next compound up: CC(C)(O)[C@H](F)CNC(=O)c1cnc(-c2ccc3cc(C#N)cnn23)cc1Nc1ccn(Cc2ccccc2)n1 [Example 370]
[reply] 0.01 µM

[ask] Next compound up: CC(C)(O)[C@H](F)CNC(=O)c1cnc(-c2ccc3cc(C#N)cnn23)cc1Nc1cnc2c(c1)CC(=O)N2 [Example 668]
[reply] 0.165 µM

[ask] Next compound up: CC(=O)N1Cc2ccc(Nc3cc(-c4ccc5cc(C#N)cnn45)ncc3C(=O)NC[C@@H](F)C(C)(C)O)cc2C1 [Example 197]
[reply] 0.042 µM

[ask] Next compound up: CNC(=O)c1cnc(-c2ccc3cc(C#N)cnn23)cc1NC12CCC(C(=O)N3CC(F)(F)C3)(CC1)CC2 [Example 483]
[reply] 0.064 µM

[ask] Next compound up: CC(C)(CCNC(=O)c1cnc(-c2ccc3cc(C#N)cnn23)cc1NC12CCC(O)(CC1)CC2)NS(C)(=O)=O [Example 342]
[reply] 0.083 µM

[ask] Next compound up: N#Cc1cnn2c(-c3cc(N[C@H]4CCC[C@@H](O)C4)c(C(=O)N[C@H]4CC[C@H](NC(=O)C5CC5)CC4)cn3)ccc2c1 [Example 527]
[reply] 0.016 µM

[ask] Next compound up: COCc1cncc(Nc2cc(-c3ccc4cc(C#N)cnn34)ncc2C(=O)NC[C@@H](F)C(C)(C)O)c1 [Example 784]
[reply] 0.04 µM

[ask] Next compound up: C[C@]1(O)C[C@@H](Nc2cc(-c3ccc4cc(C#N)cnn34)ncc2C(=O)NCC#N)C1 [Example 388]
[reply] 0.096 µM

[ask] Next compound up: COC(=O)N1CC(n2cc(Nc3cc(-c4ccc5cc(C#N)cnn45)ncc3C(=O)NC[C@@H](F)C(C)(C)O)cn2)C1 [Example 231]
[reply] 0.061 µM

[ask] Next compound up: N#CCNC(=O)c1cnc(-c2ccc3cc(C#N)cnn23)cc1N[C@H]1CC[C@H](N2CCOC2=O)CC1 [Example 391]
[reply] 0.033 µM

[ask] Next compound up: CC(=O)N1CCC(Nc2cc(-c3ccc4cc(C#N)cnn34)ncc2C(=O)NC[C@@H](F)C(C)(C)O)CC1 [Example 16]
[reply] 0.204 µM

[ask] Next compound up: CNc1cc(-c2ccc3cc(C#N)cnn23)ncc1C(=O)NCC#N [Example 463]
[reply] 0.163 µM

[ask] Next compound up: CC(C)(O)[C@H](F)CNC(=O)c1cnc(-c2ccc3cc(C#N)cnn23)cc1NC1CCN(CC(F)(F)F)CC1 [Example 329]
[reply] 0.062 µM

[ask] Next compound up: CC(C)(O)[C@H](F)CNC(=O)c1cnc(-c2ccc3cc(C#N)cnn23)cc1NCC1(O)CC1 [Example 97]
[reply] 0.18 µM

[ask] Next compound up: CC(C)(O)CNC(=O)c1cnc(-c2ccc3cc(C#N)cnn23)cc1NC12CCC(O)(CC1)CC2 [Example 753]
[reply] 0.225 µM

[ask] Next compound up: CNc1cc(-c2ccc3cc(C#N)cnn23)ncc1C(=O)NC[C@@H](F)C(C)(C)O [Example 379]
[reply] 0.057 µM

[ask] Next compound up: CC(C)(O)[C@H](F)CNC(=O)c1cnc(-c2ccc3cc(C#N)cnn23)cc1Nc1cncc(C#N)c1 [Example 610]
[reply] 0.05 µM

[ask] Next compound up: COCC(=O)N[C@H]1CC[C@H](Nc2cc(-c3ccc4cc(C#N)cnn34)ncc2C(=O)NC[C@@H](F)C(C)(C)O)CC1 [Example 284]
[reply] 0.088 µM

[ask] Next compound up: N#Cc1ccc(NC(=O)c2cnc(-c3ccc4cc(C#N)cnn34)cc2N[C@H]2CCC[C@@H](O)C2)nc1 [Example 386]
[reply] 2.38 µM

[ask] Next compound up: CC(=O)NC12CC(Nc3cc(-c4ccc5cc(C#N)cnn45)ncc3C(=O)NC3(C#N)CC3)(C1)C2 [Example 492]
[reply] 0.101 µM

[ask] Next compound up: CN(C)C(=O)c1ccc(Nc2cc(-c3ccc4cc(C#N)cnn34)ncc2C(=O)NC[C@@H](F)C(C)(C)O)cn1 [Example 575]
[reply] 0.144 µM

[ask] Next compound up: CC(C)(O)[C@H](F)CNC(=O)c1cnc(-c2ccc3cc(C#N)cnn23)cc1N[C@H]1CC[C@H](c2nncs2)CC1 [Example 642]
[reply] 0.013 µM

---

# Test system: TNFα
# Protocol: cells
# Assay type: cell-based, human
# Assay conditions: Homo sapiens, Monocyte, LPS-stimulated human monocytes, TNFα by TR-FRET; read-out: EC50 TNF
Would you mind telling me the reported pEC50 of each entry?
Worth noting: pEC50 values are minus log10 of concentrations stated in mol/L.

[ask] pEC50 for CC(C)(O)[C@H](F)CNC(=O)c1cnc(-c2ccc3cc(C#N)cnn23)cc1N[C@H]1C[C@H](CNC(=O)C2CC(F)(F)C2)C1 ?
[reply] 7.36

[ask] Next compound up: CC(C)(O)[C@H](F)CNC(=O)c1cnc(-c2ccc3cc(C#N)cnn23)cc1Nc1ccc(N2CCCC2)nc1
[reply] 7.34

[ask] Next compound up: N#Cc1cnn2c(-c3cc(NC45CCC(O)(CC4)CC5)c(C(=O)NCC(=O)N4CCC4)cn3)ccc2c1
[reply] 7.28

[ask] Next compound up: CC(C)Nc1cc(-c2ccc3cc(C#N)cnn23)ncc1C(=O)NCC(=O)OC(C)(C)C
[reply] 7.42
